TEST_SUMMARY: Blood sampling for THC and CBD plasma concentration after single oral dosing
CONDITION_DESCRIPTION: dog, plasma, oral, CBD concentration in blood plasma, mean of dogs 5-8; 0.24 mg/kg CBD + 0.12 mg/kg THC oral once; 6 h
VALUE_TYPE: concentration at 6 h (ng/mL)
Number only, in ng/mL; omit the unit.

concentration at 6 h for C=C(C)[C@@H]1CCC(C)=C[C@H]1c1c(O)cc(CCCCC)cc1O [CBD, Cannabidiol] ? 3.31

* * *

TEST_SUMMARY: Blood sampling for THC and CBD plasma concentration after single oral dosing
CONDITION_DESCRIPTION: dog, plasma, oral, THC level in blood plasma fraction, individual dogs 1-4; 0.24 mg/kg THC + 0.12 mg/kg CBD oral once; 0 h
VALUE_TYPE: concentration at 0 h (ng/mL)
# unit: ng/mL | format: bare number

Look at this compound and give its reported concentration at 0 h. CCCCCc1cc(O)c2c(c1)OC(C)(C)[C@@H]1CCC(C)=C[C@@H]21 [THC, Δ^9-Tetrahydrocannabinol] 0
